Assayed System: Aurora kinase B (Homo sapiens, UniProt Q96GD4)
Sequence (Q96GD4 whole entry): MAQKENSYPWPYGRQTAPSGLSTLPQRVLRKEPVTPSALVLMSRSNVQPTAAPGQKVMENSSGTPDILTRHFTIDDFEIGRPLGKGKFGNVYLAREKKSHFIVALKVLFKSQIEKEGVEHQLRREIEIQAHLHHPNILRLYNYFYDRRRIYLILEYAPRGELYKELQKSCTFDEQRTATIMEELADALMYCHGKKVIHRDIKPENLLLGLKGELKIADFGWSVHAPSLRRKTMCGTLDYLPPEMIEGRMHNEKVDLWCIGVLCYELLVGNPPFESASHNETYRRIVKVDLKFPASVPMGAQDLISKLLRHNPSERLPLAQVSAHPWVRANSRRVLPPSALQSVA
Type: functional
Calls of active or inactive are those of the source.
Assignment: determine reported Ki for the given compounds.

Example entries begin here.
Oc1c2ccccc2c2c3c(cccc13)N=N2 [SP-600125] : 10 nM (active)
COc1ccc(-c2cc(-c3ccccc3)c3cc(Cl)ccc3n2)cc1 : 251 nM (active)
Cc1cccc(-c2cccc3onc(N)c23)c1 : 6310 nM (active)
NC(=NO)c1ccccc1S(=O)(=O)Nc1ccc2c(c1)C(=NO)c1ccccc1-2 : 25.1 nM (active)

Alright, here's another compound for you.
The compound CCCCN1CCN(c2ccc(-c3nc4c(C(N)=O)cccc4[nH]3)cc2)CC1 showed Ki equal to 50.1 nM (active)
